Where do the numbers come from? From patent US20250027068.

molecular target: pooled human IgG (human IgG1, 2, 3 and 4)
Quick reference for Enzyme Activity Endpoint Assay (purified): scIgG among some proteins

PRT-433 (protein) MSQTEDSESLQRLRDIEDFQAEKKKQNVVYTKWLDGVDVKDHDFRKIVDGNIAYYATPLLNGRGFYDINKDFNRDSDKCAAAVAANMFHYWLDRNRDNVDRFLRQNPEKHGIIELPDGQLKLSDFLNTYESDDGYRDKSKLFDFISNNFNGPVWTDKLLDNYINGYAYNYKYGRTIEDPTKNTSKINFFKEVFNEKILTNNHSIRNQNEFSVLLIEALYTGKAIGLSYGPAGLRHSLGHIISVWGADLDADGNVVAIYVTDSDDKKLTIGDERVGLKRYKISTDDEGRLRLTAYEETHNTGGQIRGLWTLDTGKQAWADYFDKTEQTGTDQAEQ	224 ng/µL
PRT-509 (protein) MITSVWTKGVTPPTDFRKIVDGNIAYYHAPYKAGQGWYDITKTFNGKDDLLCGAATAGNMLHWWFDQNKEEIEAYLKKHPEKQKIMFGDQELLDVRKVINTKDSQTNSALFNYFKDKAFPNLSARRLGVMPDLVLDMFINGYYLNVYKTQTTDVNRTYQTKDRRGGIFDAVFTRGDQSKLLTERHDFKEKTLKEISDLIKQELTEGKALGLSHTYANVRINHVINLWGADFDSNGNLEAIYVTDSDSNASIGMKKYFVGVNSAGKVAISAKEIKEDNIGAQVLGLFTLSTGQDIWNQTNLEHHHHHH	0 ng/µL
PRT-661 (protein) MQITSVWTKGVTPLTPEQFRYNNEDVIHAPYLANQGWYDITKTFDGKDNLLCGAATAGNMLHWWFDQNKTEIEAYLSKHPEKQKIIFNNQELFDLKKAIDTKDSQTNSQLFNYFRDKAFPNLSARQLGVMPDLVLDMFINGYYLNVFKTQSTDVNRPYQDKDKRGGIFDAVFTRGDQTTLLTARHDLKNKGLNDISTIIKQELTEGRALALSHTYANVSISHVINLWGADFNAEGNLEAIYVTDSDSNASIGMKKYFVGINAAGHVAISAKKIEGENIGAQVLGLFTLSSGKDIWQKLSLEHHHHHH	70 ng/µL
PRT-643 (protein) MQITSVWTKGVTPLTPEQFRYNNEDVIHAPYLAHQGWYDITKAFDGKDNLLCGAATAGNMLHWWFDQNKTEIEAYLSKHPEKQKIIFNNQELFDLKAAIDTKDSQTNSQLFNYFRDKAFPNLSARQLGVMPDLVLDMFINGYYLNVFKTQSTDVNRPYQDKDKRGGIFDAVFTRGDQTTLLTARHDLKNKGLNDISTIIKQELTEGRALALSHTYANVSISHVINLWGADFNAEGNLEAIYVTDSDANASIGMKKYKVGYNKDGRVAISAYKIEGENIGAQVLGLFTLSSGKDIWQKLSLEHHHHHH	226 ng/µL
PRT-373 (protein) MSQTEDSESLQRLRDIEDFQAEKEKQNVVYTKWLDGVDVKDHDFRKIVDGNSAYYATPLLNGRGWYDINKDFNRDNDKCAAAVAANMFHYWLDRNRDNVDRFLRQNPEKHGIIELPDGQLKLSDFLNTYESDDGYRDKSKLFDFISENFNGPVWTDKLLDNYINGYAYNSKYGRTIEDSTKNTSKINFFKEVFNEKILTNNHSIRNQNEFSVLLIEALYTGKAIGLSYGPAGLRHGLGHIISVWGADLDADGNVVAIYVTDSDDKKLTIGDERVGLKRYKISTDDEGRLRLTAYEETHNTGGQVRGLWTLDTGKQAWADYFDKTEQTGTDQAEQ	281 ng/µL
PRT-405 (protein) MVTSVWTKGVTPPADFTQGEDVFHAPYVANQGWYDITKTFNGKDDLLCGAATAGNMLHWWFDQNKEYIEAYLKKHPEKQKIMFGDQELLDVRKAINTKGSQKNSELFNYFRDKAFPNLSARRLGVMPDLVLDMFINGYYLNVTKTQTTDVNRTYQEKDKRGGIFDAVFTRGDQSKLLTSRHDFKEKGLKEISDLIKQELTEGKALGLSHTYANVRINHVINLWGADFDSDGNLKAIYVTDSDSNASIGMKKYGVGVNSAGKVAISAKEIKEDNIGAQVLGLFTLSTGQDIWNQTN	558 ng/µL

Note to self: Enzyme Activity Endpoint Assay (purified): scIgG recorded for PRT-435 (protein) MSQTEDSESLQRLRDIEDFQAEKEKQNVVYTKWLDGVDVKDHDFRKIVDGNIAYYATPLLNGRGFYDINKDFNRDSDKCAAAVAANMFHYWLDRNRDNVDRFLRQNPEKHGIIELPDGQLKLSDFLNTYESDDGYRDKSKLFDFISNNFNGPVWTDKLLDNYINGYAYNYKYGRTIEDPTKNTSKINFFKEVFNEKILTNNHSIRNQNEFSVLLSEALYTGKAIGLSYGPAGLRHSLGHIISVWGADLDADGNVVAIYVTDSDDKKLTIGDERVGLKRYKISTDDEGRLRLTAYEETHNTGGQIRGLWTLDTGKQAWADYFDKTEQTGTDQAEQ was 380 ng/µL

# Enzyme Activity Endpoint Assay (purified): scIgG of PRT-381 (protein) MVTSVWTKGVTPPTNFTYGEDVLHAPYVANQGWYDITKTFNGKDDLLCGAATAGNMLHWWFDQNKEQIENYLKKHPEKQKINFNGEQMFDVKEAIDTKDSQLDSKLFEYFKEKAFPYLSTKHLGVFPDHVIDMFINGYRLSLTNHGPTPVKRGSKDPRGGIFDAVFTRGDQSKLLTNRHDFKEKTLKEISDLIKQELTEGKALGISHTYANVRINHVINLWGADFDAEGNLEAIYVTDSDSNPSIGMKKYFVGVNSNGKVAISAKEIEEDNIGAQVLGLFTLSTGQDIWNQTN = 194 ng/µL
